# assay-details: inhibitors of TNFa-induced NFkB p65 translocation, primary screen, imaging, HUVEC, MLSMR starter and 10KST1 sets (AID 438);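 note: compound added about 3h40 before a 20 min TNFalpha stimulation; signal is the nuclear over cytoplasmic p65 intensity ratio per well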
# run-parameters: HUVEC TNFa-induced p65 nuclear translocation; at 2 µM, active compounds read high, 0% TNFa-plus-vehicle, 100% no-TNFa wells
Here the recorded inhibition is given for each entry.
Numbers only; they are read as %.

Worked set:
>  <compound>
Cc1ccnc(NC(=O)CCC(=O)N(CC(=O)NC(C)(C)C)C2CCCC2)c1

>  <unit-of-measure>
%

>  <inhibition>
1.7

$$$$
>  <compound>
COC(=O)Nc1nc2c(C)cccc2s1

>  <unit-of-measure>
%

>  <inhibition>
0.7

$$$$
>  <compound>
COCCN1Cc2cccc(C(=O)Nc3cccnc3)c2C1=O

>  <unit-of-measure>
%

>  <inhibition>
-26.5

$$$$
>  <compound>
CN(Cc1ccccc1)C(=O)c1ccc2c(c1)OCO2

>  <unit-of-measure>
%

>  <inhibition>
10.6

$$$$
>  <compound>
Cn1c(=N)n(CC(=O)O)c2ccccc21

>  <unit-of-measure>
%

>  <inhibition>
-13.8

$$$$
>  <compound>
c1ccc2c(c1)nc(NCCN1CCOCC1)c1nncn12

>  <unit-of-measure>
%

>  <inhibition>
3.2

$$$$
>  <compound>
O=C(c1cc(-c2cccc(O)c2)on1)N1CCN(C(c2ccccc2)c2ccccc2)CC1

>  <unit-of-measure>
%

>  <inhibition>
3.2

$$$$
>  <compound>
CCOC(=O)N1CCC(NC(=O)CCN2C(=O)COc3ccccc32)CC1

>  <unit-of-measure>
%

>  <inhibition>
-2.6

$$$$
>  <compound>
Cc1c(Cl)cnc(NC(=O)COC(=O)C(NC(=O)c2ccco2)C(C)C)c1Cl (stereo not drawn)

>  <unit-of-measure>
%

>  <inhibition>
7.4

$$$$
>  <compound>
Cc1cccc(C)c1NC(=O)CS(=O)CC(=O)NC1CCCc2ccccc21 (stereo not drawn)

>  <unit-of-measure>
%

>  <inhibition>
-5.5

$$$$

Reported inhibition of COc1cc(C(c2sc3nc(C)nn3c2O)N2CC(C)CC(C)C2)cc(OC)c1OC (stereo not drawn) : -3.4

Reported inhibition of Cn1c(=O)n(CCN2CCOCC2)c(=O)c2c1nc1n2CCN1c1ccccc1 : 14

Reported inhibition of CC12CN3CC(C)(CN(C1)C3c1ccc(Cl)cc1Cl)C2=O (stereo not drawn) : -4.6

Reported inhibition of Cc1nc2ccc(S(=O)(=O)NC(C(=O)NCc3cccs3)C(C)C)cc2s1 (stereo not drawn) : -8.3

Reported inhibition of Cc1ccc(NC(=O)CSc2nnc(Cc3cccn3C)n2-c2ccc(F)cc2)cc1 : 12.9

Reported inhibition of COc1cccc2sc(NC(=O)c3ccc(S(=O)(=O)N4CCOCC4)cc3)nc12 : 0.5

###

# assay-details: TLR3 IRF3 reporter activation blockers – cell-based, poly I:C stimulus, luciferase, 10K MLSCN set, primary screen (AID 602277)
# run-parameters: HEK293-TLR3 RL24 IRF3 luciferase reporter, at 10 µM, active compounds read high
measurement-label: inhibition (%)
Numbers only; they are read as %.

>  <compound>
CC1=C(C)CC2C(=O)N(c3cccc4ccccc34)C(=O)C2C1 (configuration not stated)

>  <inhibition, %>
28.7

$$$$

Reported inhibition of Cc1cc(C)n(-c2ccc(C(=O)Nc3ccc4c(c3)OCCO4)cc2)n1 : -108

Reported inhibition of Cc1cc(NC(=O)c2ccc3c(c2)C(=O)N(Cc2cccnc2)C3=O)no1 : -11.7

Reported inhibition of CN1CCN(c2oc(COc3ccc(-c4ccccc4)cc3)nc2C#N)CC1 : -19.8

Reported inhibition of COc1ccc(-n2c(Cc3cccn3C)nnc2SCC(=O)Nc2cccc(C)c2C)cc1 : 27.3

Reported inhibition of COC(=O)CSc1ncccc1-c1nc2ccccc2[nH]1 : -32.8

Reported inhibition of O=C(NCCCCNC(=O)c1c(F)c(F)c(F)c(F)c1F)c1c(F)c(F)c(F)c(F)c1F : 20

Reported inhibition of COc1ccc2nc(NC(=O)C3CCCN(S(=O)(=O)c4cccc5nsnc45)C3)sc2c1 (configuration not stated) : -37.1

Reported inhibition of Cn1c(-c2cc(Br)ccc2O)n[nH]c1=S : -14.4

Reported inhibition of Cn1c(COc2ccc(Cl)cc2)nnc1SCC(=O)NC1CCCCC1 : -7.85

Reported inhibition of CCCCn1c(NCc2ccccc2O)nc2ccccc21 : 25.3

Reported inhibition of Fc1ccc(NCc2nnc(SCc3nnc(-c4ccccc4)o3)n2CC2CCCO2)cc1 (configuration not stated) : -12.4

Reported inhibition of COc1cccc(NC(=O)N2CCN(C(=O)C(Cc3ccc(OC)c(OC)c3)NC(C)=O)CC2)c1 (configuration not stated) : 22.8

Reported inhibition of Cc1ccc2nc(-c3ccc4c(c3)OCCO4)cc(C(=O)O)c2c1 : 98.1

Reported inhibition of Cc1ccccc1OCCCN1C(=O)C(=O)c2cccc(C)c21 : -4.08

Reported inhibition of COc1ccccc1-c1nc2n(n1)C(c1ccc(Cl)cc1)C(C(N)=O)=C(C)N2 (configuration not stated) : 36.9

Reported inhibition of O=C1CC(N2CCN(c3cccc(C(F)(F)F)c3)CC2)C(=O)N1c1ccccc1 (configuration not stated) : 27.1

###

# experimental-system: Alpha-2C adrenergic receptor (Homo sapiens) (UniProt P18825)
# Sequence (P18825 whole entry, looked up): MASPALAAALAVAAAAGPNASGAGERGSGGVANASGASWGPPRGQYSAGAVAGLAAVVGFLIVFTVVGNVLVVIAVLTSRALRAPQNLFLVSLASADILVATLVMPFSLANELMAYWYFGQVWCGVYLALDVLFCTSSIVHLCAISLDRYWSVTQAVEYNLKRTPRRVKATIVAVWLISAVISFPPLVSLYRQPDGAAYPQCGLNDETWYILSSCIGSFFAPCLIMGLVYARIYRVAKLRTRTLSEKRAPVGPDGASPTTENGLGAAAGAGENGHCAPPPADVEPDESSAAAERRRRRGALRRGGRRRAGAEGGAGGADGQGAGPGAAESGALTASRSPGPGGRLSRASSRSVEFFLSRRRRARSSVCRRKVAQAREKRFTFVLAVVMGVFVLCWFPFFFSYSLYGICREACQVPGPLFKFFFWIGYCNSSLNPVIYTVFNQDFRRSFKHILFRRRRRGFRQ
# assay-details: compounds altering alpha2C-coupled GIRK flux – cell-based, HEK293 alpha2C/GIRK1/2, thallium flux, primary screen (AID 624);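 note: slope of fluorescence ratio to pre-addition baseline per second over 15 to 24 s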
# run-parameters: thallium flux BTC fluorescence, at 10 µM, actives lie on both sides
measurement-label: slope
Lab note: record just the number, no unit beside it.

Reported slope of C=CCn1c(SCc2cccc(C#N)c2)nnc1-c1ccccc1O : 0.00698

Reported slope of OC(COc1ccccc1)CN1C2=NCCCN2c2ccccc21 (stereo unspecified) : 0.00402

Reported slope of O=C(Nc1ccccc1C(=O)N1CCN(c2ccccc2)CC1)c1ccco1 : 0.00253

Reported slope of [O-][n+]1c2ccc3nonc3c2nn1-c1ccccc1Cl : 0.0043

Reported slope of Cn1c(=O)c2c(nc(NCCCO)n2CCc2ccccc2)n(C)c1=O : 0.00351

###

# experimental-system: Alpha-2C adrenergic receptor (Homo sapiens)
# assay-details: compounds altering alpha2C-coupled GIRK flux – cell-based, HEK293 alpha2C/GIRK1/2, thallium flux, primary screen (AID 624);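 note: slope of fluorescence ratio to pre-addition baseline per second over 15 to 24 s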
# run-parameters: thallium flux BTC fluorescence, at 10 µM, actives lie on both sides
Assign labels as follows, please: 1 (yes) for slope below 0.005; 0 (no) for slope equal to or exceeding 0.005.

Some solved cases for reference:
>  <compound>
Cc1nc2c(-c3ccccc3)c(C)nn2c(C)c1CCC(=O)NCc1ccco1

>  <experimental-system>
Alpha-2C adrenergic receptor (Homo sapiens)

>  <class-assignment>
0 (no)

$$$$
>  <compound>
COC(=O)c1ccc2c(=O)n(CC3CCCO3)c(=S)[nH]c2c1 (stereo unspecified)

>  <experimental-system>
Alpha-2C adrenergic receptor (Homo sapiens)

>  <class-assignment>
0 (no)

$$$$
>  <compound>
Cc1ccc(N2CCN(CCc3nc4cc(NS(C)(=O)=O)ccc4n3C)CC2)cc1

>  <experimental-system>
Alpha-2C adrenergic receptor (Homo sapiens)

>  <class-assignment>
0 (no)

$$$$
>  <compound>
O=C(C1CCCN(S(=O)(=O)c2cccc3nonc23)C1)N1CCC(Cc2ccccc2)CC1 (stereo unspecified)

>  <experimental-system>
Alpha-2C adrenergic receptor (Homo sapiens)

>  <class-assignment>
1 (yes)

$$$$
>  <compound>
CCOc1ccccc1NC(=O)CC1Nc2cc(C)c(C)cc2NC1=O (stereo unspecified)

>  <experimental-system>
Alpha-2C adrenergic receptor (Homo sapiens)

>  <class-assignment>
0 (no)

$$$$

Does the reported slope of COc1ccc(NC2c3ncccc3C(=O)N2Cc2ccccc2)c(OC)c1 (stereo unspecified) stay below 0.005?
1 (yes)

Does the reported slope of CCn1nccc1C(=O)Nc1cc(Cl)ccc1Cl stay below 0.005?
1 (yes)

Does the reported slope of Cc1[nH]c2ccccc2c(=O)c1CN1CCCCC1 stay below 0.005?
1 (yes)

Does the reported slope of CC(NS(=O)(=O)c1ccccc1)C(c1cccs1)N1CCN(C)CC1 (stereo unspecified) stay below 0.005?
1 (yes)

Does the reported slope of CCOC(=O)C1=C(C)NC2=C(C(=O)CC(C)(C)C2)C1c1ccc(N(C)C)cc1 (stereo unspecified) stay below 0.005?
0 (no)

###

# experimental-system: Voltage-gated potassium channel subunit beta-2 (Rattus norvegicus)
# assay-details: enhancers of rat Kvbeta2 NADPH turnover – biochemical, NADPH fluorescence, primary screen (AID 623);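 note: fluorescence intensity change per second fitted from 20 to 320 s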
# run-parameters: Recombinant KvBeta, NADPH fluorescence decrease slope, 10 min; at 10 µM; active compounds read low
measurement-label: NADPH fluorescence slope
Lab note: record just the number, no unit beside it.

>  <molecule>
CC(C)(C)SCCNC(=O)COc1ccc(Cl)cc1

>  <experimental-system>
Voltage-gated potassium channel subunit beta-2 (Rattus norvegicus)

>  <NADPH fluorescence slope>
1.6e-05

$$$$
>  <molecule>
C/C(=N\O)C(C)/[N+]([O-])=C/c1nc(C)c(C)n1O (configuration not stated)

>  <experimental-system>
Voltage-gated potassium channel subunit beta-2 (Rattus norvegicus)

>  <NADPH fluorescence slope>
-7.2e-05

$$$$
>  <molecule>
CCCCSc1nnc([C@H](C)NC(=O)OC(C)(C)C)o1

>  <experimental-system>
Voltage-gated potassium channel subunit beta-2 (Rattus norvegicus)

>  <NADPH fluorescence slope>
-2.9e-05

$$$$
>  <molecule>
CCCC(NC(=O)c1ccccc1)c1nc2ccccc2n1Cc1ccc(C(=O)OC)o1 (configuration not stated)

>  <experimental-system>
Voltage-gated potassium channel subunit beta-2 (Rattus norvegicus)

>  <NADPH fluorescence slope>
-3.2e-06

$$$$
>  <molecule>
CCOC(=O)Cc1ccc(NS(=O)(=O)c2ccc(SC)cc2)cc1

>  <experimental-system>
Voltage-gated potassium channel subunit beta-2 (Rattus norvegicus)

>  <NADPH fluorescence slope>
-6.8e-05

$$$$

Reported NADPH fluorescence slope of O=[n+]1cc(-c2ccc(F)cc2)n([O-])c2c1CCC2 : 3.3e-05

Reported NADPH fluorescence slope of Cc1cccc(N2C(=O)CC(Sc3nc(C)c4c(n3)CCCC4)C2=O)c1 (configuration not stated) : -2.5e-05
